ASSAYED_SYSTEM: furin, P09958;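 further: purified furin at 1:10 enzyme:substrate in 50 mM HEPES pH 7.5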
Sequence (P09958 whole entry): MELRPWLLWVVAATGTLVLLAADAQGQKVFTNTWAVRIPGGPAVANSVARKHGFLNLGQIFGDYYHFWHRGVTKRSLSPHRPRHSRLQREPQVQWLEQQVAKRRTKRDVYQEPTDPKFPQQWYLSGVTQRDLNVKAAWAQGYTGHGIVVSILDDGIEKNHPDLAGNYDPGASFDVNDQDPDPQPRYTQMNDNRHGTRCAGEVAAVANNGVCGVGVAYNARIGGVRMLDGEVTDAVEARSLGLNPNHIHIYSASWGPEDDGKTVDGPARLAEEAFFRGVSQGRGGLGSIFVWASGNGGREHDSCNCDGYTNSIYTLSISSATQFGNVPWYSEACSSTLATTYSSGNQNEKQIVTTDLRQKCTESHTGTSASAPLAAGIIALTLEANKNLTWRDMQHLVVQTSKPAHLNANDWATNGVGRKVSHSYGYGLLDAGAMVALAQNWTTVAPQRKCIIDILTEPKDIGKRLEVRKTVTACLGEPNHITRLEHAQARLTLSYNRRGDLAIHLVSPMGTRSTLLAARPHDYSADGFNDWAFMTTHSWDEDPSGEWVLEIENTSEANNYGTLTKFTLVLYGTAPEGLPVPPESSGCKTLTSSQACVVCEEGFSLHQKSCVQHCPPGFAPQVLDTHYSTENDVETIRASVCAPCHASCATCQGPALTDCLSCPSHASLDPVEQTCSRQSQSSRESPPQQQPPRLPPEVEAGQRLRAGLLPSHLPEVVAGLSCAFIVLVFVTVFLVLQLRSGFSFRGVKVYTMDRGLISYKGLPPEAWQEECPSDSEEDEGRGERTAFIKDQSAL
PROCEDURE_SUMMARY: furin cleavage Z-score vs untreated control; higher = more cleavage, active = 3.5 or more, inactive = 1 or less, 8 variable residues between constant flanks
DETAILS: 7.5 min
The list shows a part of the results. The hit rate among all sequences tested is not known here.
METRIC: furin cleavage Z-score
The answer should be written as a number, with no unit following it.

Reported furin cleavage Z-score of CAMEICSQHLAGNASASA [HC1704] : 0.947

CAIQRLHGLSAGNASASA [HC1602] has a reported furin cleavage Z-score of -1.82

furin cleavage Z-score in this record for CARISRSLHQAGNASASA [FS-3190] : 6.79

Given item CAAYQVRNSTAGNASASA [HC256] , the value recorded as its furin cleavage Z-score is -0.996

Reported furin cleavage Z-score of CASVVTSTWVAGNASASA [HC2157] : 1.21

Looking up CARPIRSRRAAGNASASA [FS-1563] , I found its furin cleavage Z-score recorded as 11.5

The reported furin cleavage Z-score of the sequence CAECYDAGCAAGNASASA [HC920] was -0.745

Field furin cleavage Z-score (entry CARGRRSRRAAGNASASA [FS-1062] ) reads 5.6

Field furin cleavage Z-score (entry CARISRSISEAGNASASA [FS-2033] ) reads 7.46

// CARATRKTSEAGNASASA [HC184] : furin cleavage Z-score value = -0.121

GET /value?item= CAPPSREKKVAGNASASA [FS-1051] &field=furin cleavage Z-score returns -1.64

furin cleavage Z-score reading for CARGRRSHDPAGNASASA [FS-2674] : 0.899

Record CALLSRKKREAGNASASA [FS-271] . Reported furin cleavage Z-score: 8.61

The sequence listed as CATTPCSLSWAGNASASA [HC1885] shows furin cleavage Z-score equal to 1.37

Reported furin cleavage Z-score ( CATTPNSGSWAGNASASA [HC58] ) = -0.658
